system: Dirofilaria immitis microfilariae; experiment: In Vitro Assay 3: Dirofilaria immitis microfilariae (DIROIM L1) motility; format: cell-based; conditions: 72 h
readout kind: EC50

Examples with answers:
>>> result_value("CC(C)c1c(C(=O)NN2CCOc3ccccc32)sc2c(-c3cc(F)cc(F)c3F)nccc12")
"< 0.1 mg/L"
>>> result_value("CC(C)n1c(C(=O)NN2CCOc3ccccc32)nc2c(-c3cc(F)cc(F)c3F)nccc21")
"0.1 to 1 mg/L"
>>> result_value("Cc1cnc2c(C(C)C)c(C(=O)NN3CCOc4ccccc43)nn2c1-c1cc(F)cc(F)c1F")
"< 0.1 mg/L"

Exercise: Query EC50 for CC(C)c1c(C(=O)NN2CCOc3ccccc32)ccn2c(-c3c(F)ccc(F)c3F)nnc12
Key: 0.1 to 1 mg/L
